Each recorded value in this set is attributed to PubChem BioAssay.

Task for the reader: assign each of the following compounds its reported cell count.
experiment: viability loss with induced miR-34 in A549 – imaging, A549 dox-inducible miR-34, nuclei and caspase counts, primary screen (AID 1347080); details: A549 miR-34 inducible, Hoechst nuclei count, 48 h; measured here: total cells without miR-34 induction
Numbers only.

Examples with their reported cell count follow.
• CC(CN1CCC(n2c(=O)[nH]c3cc(Cl)ccc32)CC1)NC(=O)c1ccc2ccccc2c1 (centres undefined) = 5380
• CCCCC/C=C\C/C=C\C/C=C\CCCC/C=C\CCC(=O)O = 6170
• CCCCC[C@@](C)(O)/C=C/[C@H]1C=CC(=O)[C@@H]1C/C=C\CCCC(=O)O = 5710
• CCCCC[C@H](O)/C=C/[C@@H]1[C@@H](C/C=C\CCCC(=O)NC(CO)CO)[C@@H](O)C[C@H]1O = 5980
• CO[C@]12C[C@@H](COC(=O)c3cncc(Br)c3)CN(C)[C@@H]1CC1=CN(C)C3C=CC=C2C13 (some centres undefined) = 8200

Count: 6. Required value per item: cell count.
1. CC(=O)O[C@@H]1C[C@H]2C(C)(C)C(=O)C=C[C@]2(C)[C@H]2CC[C@@]3(C)[C@H](c4ccoc4)OC(=O)[C@H]4O[C@]43[C@@]21C
2. c1ccc2cc(C3=NCCN3)ncc2c1
3. CCCCCCCCCCCCC/C=C/[C@@H](O)[C@H](CO)NC(=O)CCCCC
4. C[C@]12CC[C@@H]3c4ccc(O)cc4C[C@@H](CCCCCCCCCS(=O)CCCC(F)(F)C(F)(F)F)C3[C@@H]1CC[C@@H]2O (some centres undefined)
5. COc1ccccc1C1(O)CCN(CCCn2c3ccccc3c3ccccc32)CC1
6. COc1cc(NC(=O)c2ccc(-c3ccc(Cl)cc3)o2)cc(OC)c1

A)
4720
9660
5910
6800
466
11100

Count: 7. Required value per item: cell count.
1. Cc1cc(C(C)Nc2ccccc2)c2nc(N3CCOCC3)cc(=O)n2c1 (centres undefined)
2. O=C(CCCc1ccc(-c2ccccc2F)cc1)Nc1ccc(O)cc1
3. CC(C)CCCCCCC/C=C/C(=O)O
4. C[C@H](CCCO)[C@H]1CC[C@H]2[C@@H]3[C@H](O)C[C@H]4C[C@H](O)CC[C@]4(C)[C@H]3C[C@H](O)[C@]12C
5. CC(C)(OCc1nn(Cc2ccccc2)c2ccccc12)C(=O)O
6. CCN(CCO)CCCOc1ccc2c(Nc3cc(CC(=O)Nc4cccc(F)c4)[nH]n3)ncnc2c1
7. O=Nc1ccc(O)c2ncccc12

A)
1. 6510
2. 2220
3. 5910
4. 6110
5. 9960
6. 2230
7. 2670

The measured cell count associated with CNC(=O)[C@H]1O[C@@H](n2cnc3c(NCc4cccc(I)c4)ncnc32)[C@H](O)[C@@H]1O reads 9570

---

experiment: drug combination growth inhibition, ovarian cancer – cell-based, oncology-focused library, rucaparib conditional, profiling panel (AID 1508598); settings: patient-derived ovarian cancer cells, CellTiter-Glo viability, 144 h; at 0.313 µM; OCI-C5x cells; without rucaparib; stronger effect = lower value
The source made the active and inactive calls.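 Rule for the calls: active = normalized viability below 100% at a tested concentration; inactive = the rest.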
Task for the reader: assign each of the following molecules its reported viability.

Examples with their reported viability follow.
* O=S(=O)(O)CCSSCCS(=O)(=O)O | 105% (inactive)
* OCCn1cc(-c2cnc3nnn(Cc4ccc5ncccc5c4)c3n2)cn1 | 118% (inactive)
* O=C(/C=C/c1cccc(S(=O)(=O)Nc2ccccc2)c1)NO | 75.9% (active)
* CN1CCN(c2cccc(Nc3nc4c(-c5ccc(S(C)(=O)=O)cc5)cccn4n3)c2)CC1 | 128% (inactive)
* CNC(=O)c1cc(Oc2ccc(NC(=O)Nc3cc(C(C)(C)C)nn3-c3ccc4ncccc4c3)c(F)c2)ccn1 | 105% (inactive)
* O=C(Nc1cccc(Cl)c1)Nc1ncc(CCNc2ncnc3ccsc23)s1 | 103% (inactive)

Count: 4. Required value per item: viability.
1. O=C(Nc1cn[nH]c1-c1nc2ccc(CN3CCOCC3)cc2[nH]1)NC1CC1
2. CS(=O)(=O)N1CCc2c(-c3cnc(N)nc3)nc(N3CCOCC3)nc21
3. CC(=O)c1c(C)c2cnc(Nc3ccc(N4CCNCC4)cn3)nc2n(C2CCCC2)c1=O
4. C[C@@H](Oc1cc(-n2cnc3ccc(CN4CCN(C)CC4)cc32)sc1C(N)=O)c1ccccc1C(F)(F)F

A)
["104% (inactive)", "105% (inactive)", "126% (inactive)", "22.2% (active)"]
